# EXPERIMENTAL PROTOCOL: Zeta-potential measurement
# Assay type: physicochemical
# ASSAY SETUP: zeta-potential of peptide; source data of Figure 2C
# Experimental: 4 µL of 1 mg/mL peptide fibrils solution is added to a 20 µL, 50 µM ThT–solution in PBS. The mixture is incubated for 15 min at RT to allow binding of ThT dye with β–sheet rich structures. […] Fluorescence spectra were recorded on an Infinite® M1000 PRO microplate reader (Tecan) at λem = 488 nm upon excitation at λex = 440 nm with 10 nm bandwidths and multiple reads per well (3×3). […] Furthermore, fluorescence microscopy was conducted by staining 1 µL preformed fibrils (1 mg/mL) with 9 µL ThT (50 µM). […]
Each entry below carries its recorded Zeta-Potential / mV.
Answer format: numeric, mV implied, no suffix.

- SUBSTANCE: "KVKVQVV"
  OBSERVATION TYPE: "Zeta-Potential / mV"
  READOUT NUMBER: -4.675

Query string: Look up Zeta-Potential / mV of RGDSKIKIQIC and report it.
Result string: 15.65

Query string: Look up Zeta-Potential / mV of TKTLTKTL and report it.
Result string: -13.63

Query string: Look up Zeta-Potential / mV of CKFKFQF and report it.
Result string: 17.4

Query string: Look up Zeta-Potential / mV of KFKFQFN and report it.
Result string: 10.12

Query string: Look up Zeta-Potential / mV of KKFQKKFQ and report it.
Result string: -6.175

Query string: Look up Zeta-Potential / mV of KFKFQFF and report it.
Result string: 6.903

Query string: Look up Zeta-Potential / mV of CEIEIQINM and report it.
Result string: -22.07

Query string: Look up Zeta-Potential / mV of ILKNLSRSRKIKIQIC and report it.
Result string: 19.25

Query string: Look up Zeta-Potential / mV of CKFKFQFNMWQ and report it.
Result string: 15.58

Query string: Look up Zeta-Potential / mV of KNDKND and report it.
Result string: -11.85

====

# EXPERIMENTAL PROTOCOL: Zeta-potential measurement
# Assay type: physicochemical
# ASSAY SETUP: mean, Figure 6C
Each entry below carries its recorded Zeta-Potential / mV.

- SUBSTANCE: "KFQFNMW"
  Zeta-Potential / mV: "8.763 mV"
- SUBSTANCE: "CRLRVGVS"
  Zeta-Potential / mV: "10.53 mV"
- SUBSTANCE: "RVHLGLG"
  Zeta-Potential / mV: "-6.01 mV"

Query string: Look up Zeta-Potential / mV of CRLSLSLS and report it.
Result string: 8.977 mV

Query string: Look up Zeta-Potential / mV of KAQCTLP and report it.
Result string: -8.503 mV

Query string: Look up Zeta-Potential / mV of CKIKIWIW and report it.
Result string: 19.13 mV

Query string: Look up Zeta-Potential / mV of CRFRFHFH and report it.
Result string: 19.6 mV

====

# Test system: TZM-bl cells
# Assay type: cell-based
# ASSAY SETUP: CellTiter-Glo, peptide 0.26 µM, mean of n = 3 replicates
Each entry below carries its recorded viability 0.26 µM.
Just the number, please.

Study these solved cases before continuing.
- SUBSTANCE: "HHHHKAKAKAKAYYYY [TM10]"
  viability 0.26 µM: 107.4
- SUBSTANCE: "KFKFQF [JJA6]"
  viability 0.26 µM: 101.2

Query string: Look up viability 0.26 µM of HHHHKIKIKIKIYYYY [TM6] and report it.
Result string: 112.4

Query string: Look up viability 0.26 µM of QCKFKQFFNMWQ [CK10] and report it.
Result string: 119.6

Query string: Look up viability 0.26 µM of RGDKIKIQINM [MG8a / CN17] and report it.
Result string: 107.7

Query string: Look up viability 0.26 µM of CKIKIQIRGD [psis21] and report it.
Result string: 104.5

Query string: Look up viability 0.26 µM of KIKIKIKIWWWW [TM12] and report it.
Result string: 125.9

Query string: Look up viability 0.26 µM of CEIEIQINMWQ [TM143] and report it.
Result string: 119.4

Query string: Look up viability 0.26 µM of KIKIQIC [TM112 / CN11] and report it.
Result string: 99.13

Query string: Look up viability 0.26 µM of KAKAQA [JJA2 / TM153] and report it.
Result string: 119.1

Query string: Look up viability 0.26 µM of KIKIKIKIWW [TM21] and report it.
Result string: 95.22

Query string: Look up viability 0.26 µM of CKFKQFFNM [CK14] and report it.
Result string: 126.1

====

# Type: physicochemical
# ASSAY SETUP: Fig S10 panel D
OBSERVATION TYPE: Tht category (> 2 to blank = +)

Study these solved cases before continuing.
- SUBSTANCE: "RGDKIKIQIC"
  Tht category (> 2 to blank = +): "1 (ThT. Cat is 1, if Rel. ThT >2)"
- SUBSTANCE: "KFKFQFNM"
  Tht category (> 2 to blank = +): "0 (ThT-inactive (N-Fold <2))"
- SUBSTANCE: "QCKIKIQINMWQ"
  Tht category (> 2 to blank = +): "1 (ThT. Cat is 1, if Rel. ThT >2)"

Query string: Look up Tht category (> 2 to blank = +) of CKFKFQFW and report it.
Result string: 0 (ThT-inactive (N-Fold <2))

Query string: Look up Tht category (> 2 to blank = +) of QCKFKFQFNM and report it.
Result string: 1 (ThT. Cat is 1, if Rel. ThT >2)

Query string: Look up Tht category (> 2 to blank = +) of CKIKQIINM and report it.
Result string: 1 (ThT. Cat is 1, if Rel. ThT >2)

====

# EXPERIMENTAL PROTOCOL: Conversion rate (CR) assay with fluorescamine
# Format: physicochemical
# ASSAY SETUP: Fig. S7 panel B; conversion rate, fluorescamine assay
OBSERVATION TYPE: CR / % (%)
Answer format: numeric, % implied, no suffix.

Study these solved cases before continuing.
- SUBSTANCE: "MDQMDQMDQMDQMDQ"
  READOUT NUMBER: 53
- SUBSTANCE: "CKFKFQF"
  READOUT NUMBER: 95.6
- SUBSTANCE: "KAKAQA"
  READOUT NUMBER: 0.3
- SUBSTANCE: "QCKAKAQANM"
  READOUT NUMBER: 55.9
- SUBSTANCE: "CKIKQIINMWQ"
  READOUT NUMBER: 50

Query string: Look up CR / % of CSISIQINM and report it.
Result string: 86

Query string: Look up CR / % of CKAKAQANM and report it.
Result string: 47.9

Query string: Look up CR / % of RGECKFKFQF and report it.
Result string: 98.7

Query string: Look up CR / % of HGDKCHGDKC and report it.
Result string: 37.4

Query string: Look up CR / % of KIKQII and report it.
Result string: 13

Query string: Look up CR / % of KIKQIINMWQ and report it.
Result string: 90.1

====

# Format: physicochemical
# Design: key: 1 = fibrils present; 0 non-fibrillar structures
# ASSAY SETUP: TEM, 1 mg/mL, uranyl acetate stain, qualitative
Each entry below carries its recorded Fibril / Fibril Formation.
Just the number, please.

Study these solved cases before continuing.
- SUBSTANCE: "MKIKIQINMWQ"
  OBSERVATION TYPE: "Fibril / Fibril Formation"
  READOUT NUMBER: 1
- SUBSTANCE: "LASLIYR [reference compound]"
  OBSERVATION TYPE: "Fibril / Fibril Formation"
  READOUT NUMBER: 0

Query string: Look up Fibril / Fibril Formation of CSISIQI and report it.
Result string: 1

Query string: Look up Fibril / Fibril Formation of KIKIWIW and report it.
Result string: 1

Query string: Look up Fibril / Fibril Formation of GQTVTK [reference compound] and report it.
Result string: 0

Query string: Look up Fibril / Fibril Formation of KIKQIINMWQ and report it.
Result string: 1

====

# EXPERIMENTAL PROTOCOL: Turbidity, derived count rate of scattered light
# Assay type: physicochemical
# ASSAY SETUP: derived count rate of scattered light; mean, std deviation in next column
Each entry below carries its recorded Zeta Count Rate / kcps.
Answer format: numeric, kcps implied, no suffix.

Study these solved cases before continuing.
- SUBSTANCE: "QCKFKFQFNM [CK8]"
  READOUT NUMBER: 3669.6
- SUBSTANCE: "CKFKQFFNMWQ [CK13]"
  READOUT NUMBER: 8210
- SUBSTANCE: "CQFQFQF [QBL4]"
  READOUT NUMBER: 7929

Lab note: next substance to report on.
Query string: Look up Zeta Count Rate / kcps of RGDKIKIQIC [MG7/CN1] and report it.
Result string: 7509
